Cited source: paper PMC8000041

- Method: Urinary excretion of flavanone-derived metabolites after single intake of lemon or orange extract (UPLC-ESI-QTOF-MS)
- Type: in vivo, human
- Measurement Parameters: orange extract, urine fraction 10-24 h, mean ± SD
Reported Metric: Urinary excretion F4 (µg/mg creatinine)
# unit: µg/mg creatinine | format: bare number

[
  {
    "Molecule": "COc1ccc(C2CC(=O)c3c(O)cc(O)cc3O2)cc1OC1OC(C(=O)O)C(O)C(O)C1O (centres unmarked) [M8, Hesperetin 3′-O-glucuronide]",
    "Units Label": "µg/mg creatinine",
    "Urinary excretion F4": 1.8
  }
]

Next molecule, please.
Query: // Urinary excretion F4 lookup, key: O=C1CC(c2ccc(O)c(OC3OC(C(=O)O)C(O)C(O)C3O)c2)Oc2cc(O)cc(O)c21 (centres unmarked) [M2, Eriodictyol glucuronide-2]
Result: 1.4
